Test system: ACTA2-promoter-driven-luciferase in NIH3T3 cells
Test: NIH3T3 Acta2-promoter driven-luciferase assay
Assay type: cell-based
Conditions: Mus musculus, plus TGFβ1, 24 hr, read-out: NIH3T3, Acta2-luc, IC50
Procedure: NIH3T3 cells Acta2-promoter driven-luciferase assay: A NIH3T3 cell line stably expressing a luciferase reporter driven by the human ACTA2 gene promoter (−1000-1 bp) was established (NIH3T3-Acta2-luciferase). The cells were plated to confluence and treated with the test compounds plus TGFβ1 for 24 hr. Cells were then lysed and luciferase activity was measured using the LightSwitch luciferase kit from Active Motif. […]
property-measured: IC50

# compound, property-measured, reported-result
rows = [
    ("CN[C@H](C(=O)Nc1ccc(-c2cn[nH]c2)cc1)c1cccc(OC)c1", "IC50", "110 nM"),
    ("CN[C@@H](C(=O)Nc1ccc(-c2cn[nH]c2)cc1)c1ccc(Cl)cc1", "IC50", "51 nM"),
    ("COc1cccc(C(NCCN(C)C)C(=O)Nc2ccc(-c3cn[nH]c3)cc2)c1 (stereo not shown)", "IC50", "175 nM"),
    ("CNC(C(=O)Nc1ccc(-c2cn[nH]c2)cc1)c1ccc(C(=O)O)cc1 (stereo not shown)", "IC50", "> 5000 nM"),
    ("COCCN[C@H](C(=O)Nc1ccc(-c2cn[nH]c2)cc1)c1cccc(OC)c1", "IC50", "> 5000 nM"),
    ("CNCCN[C@H](C(=O)Nc1ccc(-c2cn[nH]c2)cc1)c1cccc(OC)c1", "IC50", "633 nM"),
    ("COc1cccc(C(NCCCN(C)C)C(=O)Nc2ccc(-c3cn[nH]c3)cc2)c1 (stereo not shown)", "IC50", "1620 nM"),
    ("CNCCN[C@@H](C(=O)Nc1ccc(-c2cn[nH]c2)cc1)c1cccc(OC)c1", "IC50", "108 nM"),
    ("COCCN(C)C(C(=O)Nc1cc(F)c(-c2cn[nH]c2)cc1OCCN(C)C)c1cccc(OC)c1 (stereo not shown)", "IC50", "101 nM"),
    ("COCCCNC(C(=O)Nc1ccc(-c2cn[nH]c2)cc1)c1cccc(OC)c1 (stereo not shown)", "IC50", "1550 nM"),
]

----------
test: Brain and plasma concentrations in mouse by HPLC/MS/MS; assay type: in vivo; details: 2.5 mg/kg IV, brain, 2 hr, read-out: Mean Conc. at 2 hr, Brain

# molecule, concentration at 2 hr, ng/g
measured = [
    ("CNC(C(=O)Nc1ccc(-c2cn[nH]c2)cc1)c1cccc(OC)c1 (stereo not shown)", 76.6),
]

----------
target: recombinant ROCK1 (amino acids 1-535) (Homo sapiens (Human), UniProt Q13464); experiment: Z'-lyte kinase assay, ROCK1; type: biochemical; conditions: @ 0.5 μM; read-out: ROCK1 % inh (0.5 μM)
Sequence (Q13464 1-535): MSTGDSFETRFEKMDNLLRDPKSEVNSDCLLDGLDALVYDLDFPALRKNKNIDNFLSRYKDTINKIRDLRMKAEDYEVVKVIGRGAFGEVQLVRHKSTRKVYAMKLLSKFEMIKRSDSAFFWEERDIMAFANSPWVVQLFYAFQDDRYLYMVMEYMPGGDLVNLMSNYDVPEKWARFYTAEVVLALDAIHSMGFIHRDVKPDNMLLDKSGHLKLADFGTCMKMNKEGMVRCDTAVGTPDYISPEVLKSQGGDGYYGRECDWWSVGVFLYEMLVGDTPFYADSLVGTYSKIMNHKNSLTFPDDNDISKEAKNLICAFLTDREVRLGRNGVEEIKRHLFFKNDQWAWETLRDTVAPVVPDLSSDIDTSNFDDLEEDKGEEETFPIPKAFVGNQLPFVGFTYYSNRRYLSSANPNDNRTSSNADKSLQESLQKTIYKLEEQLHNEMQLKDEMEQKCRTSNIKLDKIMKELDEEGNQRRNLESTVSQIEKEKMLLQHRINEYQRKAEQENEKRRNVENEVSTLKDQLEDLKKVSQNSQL
Recorded inhibition at 0.5 µM for the following molecules

# molecule, target-desc, inhibition at 0.5 µM / %
measured = [
    ("CNC(C(=O)Nc1ccc(-c2cn[nH]c2)cc1)c1cccc(Cl)c1 (stereo not shown)", "recombinant ROCK1 (amino acids 1-535) (Homo sapiens (Human), UniProt Q13464)", 98),
    ("CNC(C(=O)Nc1ccc(-c2cn[nH]c2)cc1)c1cccc(F)c1 (stereo not shown)", "recombinant ROCK1 (amino acids 1-535) (Homo sapiens (Human), UniProt Q13464)", 92),
    ("CNC(C(=O)Nc1ccc(-c2cn[nH]c2)cc1)c1ccc(F)cc1 (stereo not shown)", "recombinant ROCK1 (amino acids 1-535) (Homo sapiens (Human), UniProt Q13464)", 96),
    ("CNC(C(=O)Nc1ccc(-c2cn[nH]c2)cc1)c1ccc(Cl)cc1 (stereo not shown)", "recombinant ROCK1 (amino acids 1-535) (Homo sapiens (Human), UniProt Q13464)", 99),
]

----------
Overview of recorded IC50 for various compounds
molecular target: recombinant ROCK2 (amino acids 1-552) (Homo sapiens (Human)); test: Z'-lyte kinase assay, ROCK2
Sequence (O75116 1-552): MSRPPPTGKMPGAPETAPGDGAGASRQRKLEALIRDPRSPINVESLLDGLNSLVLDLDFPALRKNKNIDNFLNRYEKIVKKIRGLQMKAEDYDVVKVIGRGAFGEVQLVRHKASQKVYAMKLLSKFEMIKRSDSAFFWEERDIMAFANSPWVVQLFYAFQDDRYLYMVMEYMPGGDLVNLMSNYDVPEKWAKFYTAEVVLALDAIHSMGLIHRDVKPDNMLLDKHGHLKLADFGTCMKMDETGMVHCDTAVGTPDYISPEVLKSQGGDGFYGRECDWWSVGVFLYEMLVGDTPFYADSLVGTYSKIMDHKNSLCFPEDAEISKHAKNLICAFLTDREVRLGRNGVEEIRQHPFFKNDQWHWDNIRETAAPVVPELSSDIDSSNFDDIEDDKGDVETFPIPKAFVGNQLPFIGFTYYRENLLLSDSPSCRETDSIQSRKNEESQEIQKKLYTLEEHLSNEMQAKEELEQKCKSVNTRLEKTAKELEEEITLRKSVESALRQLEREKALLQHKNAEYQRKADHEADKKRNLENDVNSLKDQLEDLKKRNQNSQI
property-measured: IC50

# compound, reported-result
data = [
    ("COCCNC(C(=O)Nc1ccc(-c2cn[nH]c2)cc1)c1cccc(OC)c1 (centres unmarked)", "94 nM"),
    ("COCCCNC(C(=O)Nc1ccc(-c2cn[nH]c2)cc1)c1cccc(OC)c1 (centres unmarked)", "16 nM"),
    ("COCCN(C)C(C(=O)Nc1cc(F)c(-c2cn[nH]c2)cc1OCCN(C)C)c1cccc(OC)c1 (centres unmarked)", "8.1 nM"),
    ("CNC(C(=O)Nc1ccc(-c2cn[nH]c2)cc1)c1ccc(C(=O)O)cc1 (centres unmarked)", "451 nM"),
    ("CNC(C(=O)Nc1ccc(-c2cn[nH]c2)cc1)c1cccc(C(=O)OC)c1 (centres unmarked)", "18 nM"),
    ("CNC(C(=O)Nc1ccc(-c2cn[nH]c2)cc1)c1ccc(OC)cc1 (centres unmarked)", "15.4 nM"),
    ("CN[C@H](C(=O)Nc1ccc(-c2cn[nH]c2)cc1)c1ccc(Cl)cc1", "24 nM"),
    ("CNC(=O)CNC(C(=O)Nc1ccc(-c2cn[nH]c2)cc1)c1cccc(OC)c1 (centres unmarked)", "42 nM"),
]

----------
test system: ACTA2-promoter-driven-luciferase in NIH3T3 cells; assay: NIH3T3 Acta2-promoter driven-luciferase assay; assay type: cell-based; settings: Mus musculus, plus TGFβ1, 24 hr, read-out: NIH3T3, Acta2-luc, IC50
property-measured: IC50 (nM)

# molecule, unit-label, operator-symbol, reported-result
records = [
    ("CCNC(C(=O)Nc1ccc(-c2cn[nH]c2)cc1)c1cccc(Cl)c1 (centres unmarked)", "nM", "=", 376),
    ("CCNC(C(=O)Nc1ccc(-c2cn[nH]c2)cc1)c1cccc(F)c1 (centres unmarked)", "nM", "=", 1050),
    ("COc1cccc(C(NCCN2CCOCC2)C(=O)Nc2ccc(-c3cn[nH]c3)cc2)c1 (centres unmarked)", "nM", "=", 92),
    ("CN[C@H](C(=O)Nc1ccc(-c2cn[nH]c2)cc1)c1ccc(Cl)cc1", "nM", "=", 227),
    ("CNC(C(=O)Nc1ccc(-c2cn[nH]c2)cc1)c1ccc2c(C)n[nH]c2c1 (centres unmarked)", "nM", "=", 1480),
    ("COc1cccc([C@@H](NCCN(C)C)C(=O)Nc2ccc(-c3cn[nH]c3)cc2)c1", "nM", "=", 48),
    ("CNC(=O)CNC(C(=O)Nc1ccc(-c2cn[nH]c2)cc1)c1cccc(OC)c1 (centres unmarked)", "nM", "=", 2230),
    ("COc1cccc(C(NCCOC(C)C)C(=O)Nc2ccc(-c3cn[nH]c3)cc2)c1 (centres unmarked)", "nM", "=", 826),
    ("COCCN(C)C(C(=O)Nc1ccc(-c2cn[nH]c2)cc1)c1cccc(OC)c1 (centres unmarked)", "nM", "=", 465),
    ("COCCNC(C(=O)Nc1ccc(-c2cn[nH]c2)c(F)c1)c1cccc(OC)c1 (centres unmarked)", "nM", "=", 601),
    ("COc1cccc(C(NCC(=O)N(C)C)C(=O)Nc2ccc(-c3cn[nH]c3)cc2)c1 (centres unmarked)", "nM", ">", 5000),
    ("CNC(C(=O)Nc1ccc(-c2cn[nH]c2)cc1)c1cccc(OC)c1 (centres unmarked)", "nM", "=", 352),
    ("CNC(C(=O)Nc1ccc(-c2cn[nH]c2)cc1)c1ccc(C(=O)OC)cc1 (centres unmarked)", "nM", ">", 5000),
    ("CNC(C(=O)Nc1ccc(-c2cn[nH]c2)cc1)c1ccc(C)cc1 (centres unmarked)", "nM", "=", 66),
    ("CNC(C(=O)Nc1cc(F)c(-c2cn[nH]c2)cc1OCCN(C)C)c1cccc(OC)c1 (centres unmarked)", "nM", "=", 301),
    ("CNC(C(=O)Nc1ccc(-c2cn[nH]c2)cc1)c1ccc(OC)c(F)c1 (centres unmarked)", "nM", "=", 252),
    ("CCOCCNC(C(=O)Nc1ccc(-c2cn[nH]c2)cc1)c1cccc(OC)c1 (centres unmarked)", "nM", "=", 2310),
    ("CN[C@@H](C(=O)Nc1cc(F)c(-c2cn[nH]c2)cc1OCCN(C)C)c1cccc(OC)c1", "nM", "=", 984),
    ("CCNC(C(=O)Nc1ccc(-c2cn[nH]c2)cc1)c1ccc(Cl)cc1 (centres unmarked)", "nM", "=", 155),
    ("CNC(C(=O)Nc1ccc(-c2cn[nH]c2)cc1)c1cccc(OC(F)F)c1 (centres unmarked)", "nM", "=", 1710),
    ("COc1cccc(C(NCc2cn[nH]c2)C(=O)Nc2ccc(-c3cn[nH]c3)cc2)c1 (centres unmarked)", "nM", "=", 1460),
    ("CN[C@H](C(=O)Nc1cc(F)c(-c2cn[nH]c2)cc1OCCN(C)C)c1cccc(OC)c1", "nM", "=", 122),
    ("CNC(C(=O)Nc1cc(OC)c(-c2cn[nH]c2)cc1F)c1cccc(OC)c1 (centres unmarked)", "nM", "=", 396),
    ("CNC(=O)c1cccc(C(NC)C(=O)Nc2ccc(-c3cn[nH]c3)cc2)c1 (centres unmarked)", "nM", "=", 296),
    ("CN[C@@H](C(=O)Nc1ccc(-c2cn[nH]c2)cc1)c1cccc(OC)c1", "nM", "=", 157),
    ("COc1cccc(C(NCCN2CCCC2)C(=O)Nc2ccc(-c3cn[nH]c3)cc2)c1 (centres unmarked)", "nM", "=", 675),
    ("CNC(C(=O)Nc1ccc(-c2cn[nH]c2)cc1)c1ccc2nc(C)[nH]c2c1 (centres unmarked)", "nM", ">", 5000),
    ("COc1cccc([C@H](NCCN(C)C)C(=O)Nc2ccc(-c3cn[nH]c3)cc2)c1", "nM", "=", 1410),
    ("COCCNC(C(=O)Nc1ccc(-c2cn[nH]c2)cc1)c1cccc(OC)c1 (centres unmarked)", "nM", "=", 663),
    ("CNC(C(=O)Nc1ccc(-c2cn[nH]c2)cc1)c1ccc2nc(C)sc2c1 (centres unmarked)", "nM", "=", 699),
    ("CNCCNC(C(=O)Nc1ccc(-c2cn[nH]c2)cc1)c1cccc(OC)c1 (centres unmarked)", "nM", "=", 251),
    ("CCNC(C(=O)Nc1ccc(-c2cn[nH]c2)cc1)c1cccc(OC)c1 (centres unmarked)", "nM", "=", 1570),
]

Sourced from patent US11479533B2
